Biological target: T1, IL-6R-Fc 항원 (human, UniProt P08887 20-365, limits assumed)
T1 construct: domain: IL-6R full domain; Made in-house as IL-6R-Fc; also called IL-6R full; IL-6R full domain인 단백질; not shown: Fc part (vector pYK 604)
T1 sequence (looked up): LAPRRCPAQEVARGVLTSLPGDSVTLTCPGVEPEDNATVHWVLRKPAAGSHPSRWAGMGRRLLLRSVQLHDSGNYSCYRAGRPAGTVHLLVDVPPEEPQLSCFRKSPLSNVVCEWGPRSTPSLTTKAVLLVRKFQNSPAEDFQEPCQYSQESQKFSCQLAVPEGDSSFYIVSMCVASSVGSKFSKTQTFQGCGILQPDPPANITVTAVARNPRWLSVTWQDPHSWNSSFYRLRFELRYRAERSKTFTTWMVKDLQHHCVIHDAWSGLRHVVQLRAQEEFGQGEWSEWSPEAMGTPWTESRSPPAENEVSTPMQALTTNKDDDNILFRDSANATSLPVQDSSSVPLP
Test: ELISA; IL-6R coated 100 ng/well; IgG at 0.09766 nM; anti-Fab-HRP
Listed next: entries and their corresponding OD 490 nm.
Field format: number, assumed OD490, no unit text.

항 IL-6R 단클론 항체 D2 (antibody, V domains shown) VH: QVQLVESGAEVKKPGSSVKVSCKGSGDTFPNYAINWVRQAPGQGPEWMGRIIPMLGTSDYAEKFQGRVTITADKSTNTAYMGLNSLRSEDTAVYYCVKGPRYYGTDSYYLEKWGQGTMVTVSS VL: SQLVLTQPPSVSGAPGQTVTISCTGPTIGAGYDVHWYQQLPGAAPKLLIYGNLNRPSGVPDRFSGSKSGTSASLAITDLQAEDEADYYCHTYDSSLSGSWVFGGGTKLTVL ... 0.45
항 IL-6R 단클론 항체 A7 (antibody, V domains shown) VH: QMQLVESGGGLVQPGTSLRLSCAASGFKFEDYAMHWVRQAPGKGLEWVSGVSWNSGTIAYVDSVKGRFTISRDNAKNSLYLQMNSLRAEDTAVYYCARDFTYFYESSGYYAFDLWGQGTMVTVSS VL: SQLVLTQPPSVSGAPGQRVTISCTGTNSNIGAGYDVHWYQQVPGTTPKLLIYGNTNRPSGVPDRFSGSKSGTSASLAITGLQAEDGGDYYCQSFDSSLTGSVFGTGTKVTVL ... 0.497

# next binder below
So for 항 IL-6R 단클론 항체 B10 (antibody, V domains shown) VH: QVQLVESGGGLVQPGGSLRLSCAASGFIFDDYAMFWVRQVPGKGLEWVAGINWNGNGIGYGDSVRGRFIISRDNARNSLDLQMNSLRAEDTAVYYCARPSLYGGNSEFDLWGQGTLVTVSS VL: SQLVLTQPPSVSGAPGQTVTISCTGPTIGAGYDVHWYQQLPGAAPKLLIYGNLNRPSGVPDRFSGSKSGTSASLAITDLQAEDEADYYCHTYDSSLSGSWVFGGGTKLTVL , the logged OD 490 nm turned out to be 0.462
